# credit: paper PMC9482650

TARGET_UNDER_TEST: LIMK2, P53671
Sequence (P53671 143-248): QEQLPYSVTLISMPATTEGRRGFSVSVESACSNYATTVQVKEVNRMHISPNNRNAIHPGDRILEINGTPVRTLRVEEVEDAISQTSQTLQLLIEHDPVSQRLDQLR
ASSAY_NAME: holdup assay
Set-up: key: below the threshold = too weak to quantify, mostly under pKd 3.1 to 4
DETAILS: plain residues with an end cap or a label only (N-terminal biotin on a linker: ttds)
RECORDED_ENDPOINT: pKd

SHSSKGETAV [FZD7, O75084]	below the threshold
DLDEEEDTHL [PODXL, O00592]	below the threshold
PSRDRKETSI [RALBP1, Q15311]	below the threshold
